This collection of values is drawn from ChEMBL document CHEMBL5550184.

- Test name: Half-life in Cynomolgus monkey at 0.167 mg/kg, iv measured upto 24 hrs by LC-MS/MS analysis
- Type: ADME, organism-based, Macaca fascicularis
- Measurement parameters: in vivo
Positions of bridges follow the written chain, without caps; N, C: chain ends. Non-standard residues stand in square brackets, D forms with d. Residues, ends and D or L forms follow the SMILES beside them. *: point of attachment. hPhe(3-Cl-4-CF3) = N[C@@H](CCc1ccc(C(F)(F)F)c(Cl)c1)C(=O)O; NMeGly(cPent) = CN[C@H](C(=O)O)C1CCCC1; NMeCha = CN[C@@H](CC1CCCCC1)C(=O)O; NMeD = CN[C@@H](CC(=O)O)C(=O)O; NMeL = CN[C@@H](CC(C)C)C(=O)O; Morpholide = C1CN(*)CCO1; NMeA = CN[C@@H](C)C(=O)O; Ac5c = NC1(C(=O)O)CCCC1; Aze = O=C(O)[C@@H]1CCN1; Sar = CNCC(=O)O
Readout type: half-life (h)
The figure you give is taken to be in h; do not add the unit.

# half-life of CC[C@H](C)[C@@H]1NC(=O)[C@H](CC(C)C)N(C)C(=O)C[C@@H](C(=O)N2CCOCC2)N(C)C(=O)[C@H](C2CCCC2)N(C)C(=O)C2(CCCC2)NC(=O)[C@@H]2CCCN2C(=O)[C@H](CCc2ccc(C(F)(F)F)c(Cl)c2)NC(=O)CN(C)C(=O)[C@H](CC2CCCCC2)N(C)C(=O)[C@@H]2CCN2C(=O)[C@H](C)N(C)C1=O ([NMeL]I[NMeA][Aze][NMeCha][Sar][hPhe(3-Cl-4-CF3)]P[Ac5c][NMeGly(cPent)][NMeD]-Morpholide; lactam N-11) = 8.14

====

- Test name: Clearance in Cynomolgus monkey at 0.168 mg/kg, iv measured upto 24 hrs by LC-MS/MS analysis
- Format: ADME, organism-based, Macaca fascicularis
- Measurement parameters: in vivo
Positions of bridges follow the written chain, without caps; N, C: chain ends. Non-standard residues stand in square brackets, D forms with d. Residues, ends and D or L forms follow the SMILES beside them. *: point of attachment. hPhe(3-Cl-4-CF3) = N[C@@H](CCc1ccc(C(F)(F)F)c(Cl)c1)C(=O)O; NMeGly(cPent) = CN[C@H](C(=O)O)C1CCCC1; NMeCha = CN[C@@H](CC1CCCCC1)C(=O)O; NMeD = CN[C@@H](CC(=O)O)C(=O)O; NMeL = CN[C@@H](CC(C)C)C(=O)O; NMeA = CN[C@@H](C)C(=O)O; Piperidide = C1CCN(*)CC1; Ac5c = NC1(C(=O)O)CCCC1; Aze = O=C(O)[C@@H]1CCN1; Sar = CNCC(=O)O
Readout type: clearance

# clearance of CC[C@H](C)[C@@H]1NC(=O)[C@H](CC(C)C)N(C)C(=O)C[C@@H](C(=O)N2CCCCC2)N(C)C(=O)[C@H](C2CCCC2)N(C)C(=O)C2(CCCC2)NC(=O)[C@@H]2CCCN2C(=O)[C@H](CCc2ccc(C(F)(F)F)c(Cl)c2)NC(=O)CN(C)C(=O)[C@H](CC2CCCCC2)N(C)C(=O)[C@@H]2CCN2C(=O)[C@H](C)N(C)C1=O ([NMeL]I[NMeA][Aze][NMeCha][Sar][hPhe(3-Cl-4-CF3)]P[Ac5c][NMeGly(cPent)][NMeD]-Piperidide; lactam N-11) = 1.81 mL/min/kg
